target: PfENT1 (Plasmodium falciparum, UniProt Q8IDM6); construct: expressed in transfected cells; host or cells: fui1Δ yeast (Saccharomyces cerevisiae), co-expressing GFP; format: cell-based; settings: primary HTS, compounds at 10 μM, 125 μM 5-FUrd
Sequence (Q8IDM6 whole entry): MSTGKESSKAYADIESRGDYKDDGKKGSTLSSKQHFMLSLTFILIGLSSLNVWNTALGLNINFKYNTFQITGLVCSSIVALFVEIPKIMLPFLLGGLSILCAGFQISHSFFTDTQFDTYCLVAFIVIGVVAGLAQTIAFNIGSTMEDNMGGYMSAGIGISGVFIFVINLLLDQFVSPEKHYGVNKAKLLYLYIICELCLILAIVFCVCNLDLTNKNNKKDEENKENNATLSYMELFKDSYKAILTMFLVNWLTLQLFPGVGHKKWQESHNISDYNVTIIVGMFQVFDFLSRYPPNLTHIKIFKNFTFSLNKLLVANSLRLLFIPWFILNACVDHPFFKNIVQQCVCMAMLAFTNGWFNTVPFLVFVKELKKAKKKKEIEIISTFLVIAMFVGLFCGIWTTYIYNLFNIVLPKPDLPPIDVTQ
With a cut-off of 6%, any Avg Normalized % maximal activity strictly below it is called Fulfilled; any Avg Normalized % maximal activity meeting it or above is called Not fulfilled.

Field: example entries. Status: answers known.
{"compound": "O=C(Nc1nc2c(s1)C(=O)CCC2)c1ccccc1Cl", "class_assignment": "Not fulfilled"}
{"compound": "CC1CCc2sc3ncnc(N4CCN(C(=O)c5ccco5)CC4)c3c2C1 (stereo not shown)", "class_assignment": "Not fulfilled"}
{"compound": "Cc1nc(NC(=O)c2sc3ccccc3c2Cl)sc1C(=O)N(C)C", "class_assignment": "Not fulfilled"}
{"compound": "O=C(O)c1ccc(S(=O)(=O)N(Cl)Cl)cc1", "class_assignment": "Fulfilled"}
{"compound": "O=C(COc1ccccc1Cl)Nc1ccc(C(=O)N2CCCCC2)cc1", "class_assignment": "Not fulfilled"}

Asked: Threshold test, Avg Normalized % maximal activity < 6%: Cc1nnc(SCc2csc(-c3ccc4c(c3)OCO4)n2)s1
Given back: Not fulfilled

Asked: Threshold test, Avg Normalized % maximal activity < 6%: O=C(Nc1ccc(-c2nnc(-c3ccccc3)o2)cc1)c1ccccc1Cl
Given back: Fulfilled

Asked: Threshold test, Avg Normalized % maximal activity < 6%: COc1c(C)c2c(c(O)c1C/C=C(\C)CCC(=O)OCCN1CCOCC1)C(=O)OC2
Given back: Fulfilled

Asked: Threshold test, Avg Normalized % maximal activity < 6%: Cc1cc(-c2nc3ncccc3o2)ccc1NC(=O)c1ccco1
Given back: Not fulfilled

Asked: Threshold test, Avg Normalized % maximal activity < 6%: CCOc1ccccc1C(=O)Nc1nc(C)c(C(=O)N(C)C)s1
Given back: Fulfilled
